System: Vero
method description: Cytotoxicity against African green monkey Vero cells assessed as reduction in cell viability by resazurin microplate assay
Type: cell-based, Chlorocebus sabaeus
run parameters: vero
attribute measured: pIC50
As a rule, pIC50 stands for the negative log10 of the concentration, concentration in M.

[
  {
    "chemical smiles": "CC(=O)O[C@@H]1C[C@H]2O[C@@H]3C=C(CO)CC[C@]3(C)[C@]1(C)[C@]21CO1",
    "attribute measured": "pIC50",
    "result number": 5.11
  },
  {
    "chemical smiles": "CC(=O)O[C@@H]1C[C@H]2O[C@@H]3C=C(C=O)CC[C@]3(C)[C@]1(C)[C@]21CO1",
    "attribute measured": "pIC50",
    "result number": 5.00
  },
  {
    "chemical smiles": "CC(=O)O[C@@H]1C[C@H]2O[C@@H]3C[C@H](CO)CC[C@]3(C)[C@]1(C)[C@]21CO1",
    "attribute measured": "pIC50",
    "result number": 4.34
  },
  {
    "chemical smiles": "CC(=O)O[C@@H]1C[C@H]2O[C@@H]3C=C(C)CC[C@]3(C)[C@]1(C)[C@]21CO1",
    "attribute measured": "pIC50",
    "result number": 6.40
  }
]

Now look at this one.
Request: Answer with reported pIC50 of CC1=C[C@H]2O[C@@H]3C[C@@H](O)[C@](C)([C@@]2(C)CC1)[C@]31CO1
Result: 5.16

---

Tested on: Plasmodium falciparum
method description: Antimalarial activity against multidrug-resistant Plasmodium falciparum K1 infected in erythrocytes assessed as reduction in [3H]-hypoxanthine incorporation incubated for 24 hrs before [3H]-hypoxanthine addition and measured after 24 hrs by microplate scintillation counting based microculture radioisotope technique
Type: functional, organism-based
run parameters: read-out: IC50
attribute measured: pIC50
Please treat pIC50 as minus the base-10 logarithm of the molar concentration.

[
  {
    "chemical smiles": "CC(=O)O[C@@H]1C[C@H]2O[C@@H]3C=C(CO)CC[C@]3(C)[C@]1(C)[C@]21CO1",
    "subject of test": "Plasmodium falciparum",
    "result number": 5.06
  },
  {
    "chemical smiles": "CC1=C[C@H]2O[C@@H]3C[C@@H](O)[C@](C)([C@@]2(C)CC1)[C@]31CO1",
    "subject of test": "Plasmodium falciparum",
    "result number": 5.15
  },
  {
    "chemical smiles": "CC(=O)O[C@@H]1C[C@H]2O[C@@H]3C=C(C)CC[C@]3(C)[C@]1(C)[C@]21CO1",
    "subject of test": "Plasmodium falciparum",
    "result number": 7.00
  }
]

Turning now to a further record.
Request: Give pIC50 for CC(=O)O[C@@H]1C[C@H]2O[C@@H]3C=C(C=O)CC[C@]3(C)[C@]1(C)[C@]21CO1
Result: 5.02
